Please go through the items and note down their IC50.
Molecular target: human cGAS (residues 161-522) (Homo sapiens)
Construct: Recombinantly expressed purified human cGAS (residues 161-522) was used at 25 nM; made in house
Sequence (Q8N884 161-522): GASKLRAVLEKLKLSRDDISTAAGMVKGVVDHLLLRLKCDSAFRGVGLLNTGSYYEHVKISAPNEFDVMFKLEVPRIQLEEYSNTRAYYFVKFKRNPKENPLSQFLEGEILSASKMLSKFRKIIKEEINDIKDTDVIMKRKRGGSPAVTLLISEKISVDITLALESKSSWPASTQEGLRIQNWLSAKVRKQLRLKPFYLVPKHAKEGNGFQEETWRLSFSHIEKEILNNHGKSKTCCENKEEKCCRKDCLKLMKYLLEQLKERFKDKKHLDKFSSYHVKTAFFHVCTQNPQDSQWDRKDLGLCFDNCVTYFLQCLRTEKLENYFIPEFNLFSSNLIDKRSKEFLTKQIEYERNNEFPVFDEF
Test: cGAS Activity Assay—Malachite Green
Type: biochemical
Please reply with the bare figure in nM and do not write the unit itself.

Record request: IC50 value, item CCCc1cc(=O)n2nc(NCc3cc(-c4ccn(C)n4)ccc3C)nc2[nH]1 1240

Entry CCCc1cc(=O)n2nc(NCc3ccc(OCC(F)(F)F)cc3)nc2[nH]1 : reported IC50 = ? 7780

Which IC50 value is on record for O=c1nc(CCc2ccccc2)[nH]c2nc(NCc3ccc(Cl)cc3Cl)nn12 ? 7790

Please report the recorded IC50 for CCCc1cc(=O)n2nc(NCc3ccc(Cl)cc3F)nc2[nH]1 . 4040

Please look up its IC50: CCCc1cc(=O)n2nc(NCc3cc(-n4cncc4C)ccc3Cl)nc2[nH]1 640

Can you look up the measured IC50 of CCCc1cc(=O)n2nc(NCc3cc(-c4cn(C)cn4)ccc3Cl)nc2[nH]1 for me? 444

// query IC50 value for entry CC(Nc1nc2[nH]c(C(F)(F)F)cc(=O)n2n1)c1ccc(Cl)cc1Cl (stereo not drawn) 8410

// IC50 lookup, key: CC(C)c1cc(=O)n2nc(NCc3ccc(Cl)cc3Cl)nc2[nH]1 2740

So what does the record say about IC50 for CCCc1cc(=O)n2nc(NCc3ccc(C(C)C)cc3)nc2[nH]1 ? 1590
